- Tested on: adenosine-sensitive receptors of thrombocytes
- measurement.description: ADP-induced aggregation of thrombocytes in vitro (Born method)
- Type: cell-based, rabbit
- experimental.context: 10^−4 M; 3 min incubation; ADP 10^−5 M
quantity.kind: MA - fall of optical density of plasma, % to the standard (%)

{"columns": ["compound.string", "assay.result"],
 "data": [
  ["Nc1cnc2c(=O)n([C@@H]3O[C@H](CO)[C@@H](O)[C@H]3O)[nH]c(=O)c2n1.[Na]", 49.2],
  ["O=c1[nH]n([C@@H]2O[C@H](CO)[C@@H](O)[C@H]2O)c(=O)c2nccc(O)c12.[Na].[Na]", 50.2],
  ["Nc1ccnc2c(=O)n([C@@H]3O[C@H](CO)[C@@H](O)[C@H]3O)[nH]c(=O)c12", 50.4],
  ["Nc1cnc2c(=O)[nH][nH]c(=O)c2n1.[Na]", 48.9],
  ["O=c1[nH][nH]c(=O)c2nccnc12.[Li]", 48.6]
]}

----------
- measurement.description: Polarographic study of electrochemical reduction (electrochemical activity)
- Type: physicochemical
- experimental.context: calculated with the Geirovsky-Ilkovich equation
// reported number of electrons participating in the reduction for each item listed
quantity.kind: number of electrons participating in the reduction

{"columns": ["compound.string", "assay.result"],
 "data": [
  ["O=c1[nH]n([C@@H]2O[C@H](CO)[C@@H](O)[C@H]2O)c(=O)c2ncnc(O)c12.[Na]", 3.5],
  ["Nc1ncc2c(=O)[nH][nH]c(=O)c2n1", 3.5],
  ["O=c1[nH][nH]c(=O)c2ncccc12.[Na]", 3.72],
  ["O=c1[nH][nH]c(=O)c2nccnc12.[Li]", 3.72]
]}
